# target_system: UniProt Q99685
# method_notes: Inhibition of human recombinant MAGL using [3H]-2-OG as substrate after 10 mins by liquid scintillation counter
measured_quantity: IC50

Before answering, review these 2 worked examples.
> print(dat)
                              line.notation  measured.quantity     result
1  CC(C)(C)c1ccc(SC(=S)N2CCN(C(c3ccccc3)c3ccccc3)CC2)cc1               IC50  > 1000 µM
2  Cc1ccc(SC(=S)N2CCN(C(c3ccccc3)c3ccccc3)CC2)cc1               IC50  > 1000 µM

# evaluate next
Request: Consider the compound S=C(Sc1ccc(Cl)cc1)N1CCN(C(c2ccccc2)c2ccccc2)CC1 and give its recorded IC50.
Response: > 1000 µM

----------
# target_system: Monoglyceride lipase (Homo sapiens)
# Sequence (Q99685 whole entry): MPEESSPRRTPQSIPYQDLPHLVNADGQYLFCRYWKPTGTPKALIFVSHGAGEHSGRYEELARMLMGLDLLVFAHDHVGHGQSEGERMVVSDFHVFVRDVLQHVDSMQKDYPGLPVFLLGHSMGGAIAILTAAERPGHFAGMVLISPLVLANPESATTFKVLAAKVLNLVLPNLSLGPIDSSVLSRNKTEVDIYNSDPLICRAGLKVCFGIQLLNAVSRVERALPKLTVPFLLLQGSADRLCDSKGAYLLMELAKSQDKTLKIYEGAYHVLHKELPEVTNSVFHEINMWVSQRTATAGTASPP
# method_notes: Inhibition of human recombinant MAGL using [3H]-2-OG as substrate after 10 mins by liquid scintillation counter
Just a reminder that ties go to Criterion not met: only IC50 strictly below 3 µM counts as Criterion met.

> print(dat)
                              line.notation   class.assignment
1  O=[N+]([O-])c1ccc(SC(=S)N2CCN(C(c3ccccc3)c3ccccc3)CC2)c([N+](=O)[O-])c1      Criterion met
2  O=[N+]([O-])c1ccc(SC(=S)N2CCN(C(c3ccccc3)c3ccccc3)CC2)cc1  Criterion not met

Request: # check: IC50 < 3 µM for O=[N+]([O-])c1ccc(SC(=S)N2CCN(c3ccccc3)CC2)c([N+](=O)[O-])c1
Response: Criterion not met

Request: # check: IC50 < 3 µM for O=[N+]([O-])c1ccc(SC(=S)N2CCCCC2)c([N+](=O)[O-])c1
Response: Criterion met

Request: # check: IC50 < 3 µM for S=C(Sc1ccccc1Cl)N1CCN(C(c2ccccc2)c2ccccc2)CC1
Response: Criterion not met

----------
For each record, write down the corresponding Ratio IC50.
# Species: Homo sapiens
# method_notes: Selectivity ratio of IC50 for human recombinant FAAH to IC50 for human recombinant MAGL
Numbers only.

Would you mind listing Ratio IC50 for each of the following compounds?
1. O=[N+]([O-])c1ccc(SC(=S)N2CCc3ccccc3C2)c([N+](=O)[O-])c1
2. CN1CCN(C(=S)Sc2ccc([N+](=O)[O-])cc2[N+](=O)[O-])CC1
3. CN(Cc1ccccc1)C(=S)Sc1ccc([N+](=O)[O-])cc1[N+](=O)[O-]
4. CCN(Cc1ccccc1)C(=S)Sc1ccc([N+](=O)[O-])cc1[N+](=O)[O-]
5. O=[N+]([O-])c1ccc(SC(=S)N2CCC(Cc3ccccc3)CC2)c([N+](=O)[O-])c1

Response:
1: 7; 2: 13; 3: 0.4; 4: 0.9; 5: 2

Would you mind listing Ratio IC50 for each of the following compounds?
1. O=[N+]([O-])c1ccc(SC(=S)N2CCN(Cc3ccc(Br)cc3)CC2)c([N+](=O)[O-])c1
2. O=C1CCN(C(=S)Sc2ccc([N+](=O)[O-])cc2[N+](=O)[O-])CC1
3. O=[N+]([O-])c1ccc(SC(=S)N2CCN(c3ccccc3)CC2)c([N+](=O)[O-])c1
4. O=[N+]([O-])c1ccc(SC(=S)N2CCCC2)c([N+](=O)[O-])c1
5. O=[N+]([O-])c1ccc(SC(=S)N2CCN(C/C=C/c3ccccc3)CC2)c([N+](=O)[O-])c1
6. CC(C)(C)c1ccc(CN2CCN(C(=S)Sc3ccc([N+](=O)[O-])cc3[N+](=O)[O-])CC2)cc1
7. O=[N+]([O-])c1ccc(SC(=S)N(Cc2ccccc2)Cc2ccccc2)c([N+](=O)[O-])c1
8. O=[N+]([O-])c1ccc(SC(=S)N2CCOCC2)c([N+](=O)[O-])c1

Response:
1. 3
2. 12
3. 0.3
4. 7
5. 5
6. 11
7. 1.3
8. 13

----------
# Organism: Homo sapiens
# method_notes: Selectivity ratio of IC50 for human recombinant FAAH to IC50 for human recombinant MAGL
measured_quantity: Ratio IC50

Before answering, review these 3 worked examples.
> print(dat)
                              line.notation  measured.quantity  result
1  O=[N+]([O-])c1ccc(SC(=S)N2CCN(C(c3ccccc3)c3ccccc3)CC2)c([N+](=O)[O-])c1         Ratio IC50  > 2820
2  O=C(C(=S)N1CCN(C(c2ccccc2)c2ccccc2)CC1)c1ccc([N+](=O)[O-])cc1         Ratio IC50    > 46
3  O=[N+]([O-])c1ccc(SC(=S)N(c2ccccc2)c2ccccc2)c([N+](=O)[O-])c1         Ratio IC50   > 380

Would you mind listing Ratio IC50 for each of the following compounds?
1. O=[N+]([O-])c1ccc(SC(=S)N(C2CCCCC2)C2CCCCC2)c([N+](=O)[O-])c1
2. O=[N+]([O-])c1ccc(NC(=S)N2CCN(C(c3ccccc3)c3ccccc3)CC2)cc1
3. CCN(CC)C(=O)c1ccc(SC(=S)N2CCN(C(c3ccccc3)c3ccccc3)CC2)cc1

Response:
1. > 501
2. > 34
3. < 10
